- System Under Test: Oxysterols receptor LXR-alpha (Homo sapiens, UniProt Q13133)
- Sequence (Q13133 whole entry): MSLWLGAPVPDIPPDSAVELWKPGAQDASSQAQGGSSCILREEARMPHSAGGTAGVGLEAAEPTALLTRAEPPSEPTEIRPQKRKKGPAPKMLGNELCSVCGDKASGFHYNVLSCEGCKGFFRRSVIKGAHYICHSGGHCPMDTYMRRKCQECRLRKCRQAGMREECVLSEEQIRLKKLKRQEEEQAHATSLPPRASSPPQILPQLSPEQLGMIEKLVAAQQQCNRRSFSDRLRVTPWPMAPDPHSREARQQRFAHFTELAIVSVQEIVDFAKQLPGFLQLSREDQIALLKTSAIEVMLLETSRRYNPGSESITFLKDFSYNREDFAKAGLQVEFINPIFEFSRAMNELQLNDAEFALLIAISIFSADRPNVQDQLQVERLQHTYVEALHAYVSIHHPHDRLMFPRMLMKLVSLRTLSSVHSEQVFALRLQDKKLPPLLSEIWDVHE
- Protocol Text: Agonist activity at LXRalpha by FRET assay
- Assay type: functional
pEC50: −log10 of the molar value.
Parameter Measured: pEC50

a: Cc1cc(OCCCN(Cc2cccc(C(F)(F)F)c2Cl)CC(c2ccccc2)c2ccccc2)n[nH]1
b: Cn1ccc2c(OCCCN(Cc3cccc(C(F)(F)F)c3Cl)CC(c3ccccc3)c3ccccc3)cccc21
c: O=C(O)Cn1ccc2c(OCCCN(Cc3cccc(C(F)(F)F)c3Cl)CC(c3ccccc3)c3ccccc3)cccc21
Put the above entries in order of falling pEC50. Please, when replying, give the labels in the order that was requested. c, a, b
(c: 7.85, a: 7.64, b: 7.41)
